Consider the following variants and their measured self-cleavage readings.
B1: HDV Ribozyme (parent)
chain: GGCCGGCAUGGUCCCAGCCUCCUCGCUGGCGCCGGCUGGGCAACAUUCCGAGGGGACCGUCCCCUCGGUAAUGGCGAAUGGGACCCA

- Variants of: B1
- Test protocol: self-cleavage, relative activity (ratio to wild type); higher = more cleavage; co-transcriptional
Simply state the number, no unit and no words.

Observe how each entry below is paired with its result.
> print(dat)
   variant.descriptor  measurement.kind  numeric.readout
1           U23A G34C     self-cleavage            0.339
2           G35A G67C     self-cleavage            0.564
3           U23A G68A     self-cleavage            0.906
4            A8C U37G     self-cleavage            0.166
5            G1U G29C     self-cleavage            0.292
6            C4A G40U     self-cleavage            0.199

Consider G11U G53U . Its measured self-cleavage is 0.385

Consider U9G G59A . Its measured self-cleavage is 1.16

Consider A8U U72C . Its measured self-cleavage is 0.443

Consider G2C C41G . Its measured self-cleavage is 0.103

Consider C18U G28A . Its measured self-cleavage is 0.0346
